Data provenance is patent US20100322937A1.

# Target: T1, V^583D EGFR (full-length human, FLAG tag) on BaF/3 cells (human, UniProt P00533 25-1210)
# T1 construct: whole, on cells
# Assay Overview: Scatchard, 125I-EGF on BaF/3 cells, Kd2 (low-affinity site)
# Experimental: Ligand binding to cells expressing the wt or mutant EGFR was determined at room temperature in the presence of the internalization inhibitor phenylarsine oxide (PAO) (29) by cold saturation experiments. […] All experimental points were prepared in triplicate. […] Data were analyzed using the “Kell for Windows” RadLig program. ^{(a)}Number of receptors per cell were calculated from the Bₘₐₓ and the number of cells/tube in each ligand binding experiment.
Metric: Kd (nM)
Give your result in nM as a bare value.

Please fill in: Kd reported for Murine EGF, purified from mouse submaxillary glands (ligand, UniProt P01132 977-1029, looked up, iodinated with 125I (Iodogen) as tracer in the Scatchard assays, mature; also called ^125I-EGF) NSYPGCPSSYDGYCLNGGVCMHIESLDSYTCNCVIGYSGDRCQTRDLRWWELR = 1.3
